# Test system: RPMI-8226
# ASSAY: NCI tumour cell line growth inhibition, 48 h
The source made the active and inactive calls. No stated cut-off is given here; in the data, active = GI50 up to about 1.1 µM and inactive = higher.
QUANTITY NAME: GI50

Sample records with GI50:
### Prompt Which value of GI50 has been reported for C[C@@H](C(=O)O)c1ccc(-c2ccccc2)c(F)c1 in the records?
### Response > 100 µM (inactive)

### Prompt Fill in the blank: the reported GI50 of O=C(c1ccccc1O)c1cc(-c2ncc3c(=O)c4ccccc4oc3n2)c(-c2ccccc2O)[nH]c1=O is ____.
### Response 20.1 µM (inactive)

### Prompt Query (compound): CC(C)(c1ccccc1)c1ccc(Oc2ccc(C#N)c(C#N)c2)cc1 ; field requested: GI50
### Response 10.2 µM (inactive)

### Prompt Which measured GI50 value corresponds to Cc1ccc(-c2n[nH]c(=O)n2N2C(=O)c3ccccc3C2=O)cc1 ?
### Response > 100 µM (inactive)

### Prompt What does the record list as GI50 for CC1CCC2C(C)C(=O)OC2C2(C)C(=O)C=CC12 (stereo not drawn) ?
### Response 8.47 µM (inactive)

### Prompt Consider the compound shown here: O=c1cc(N2CCOCC2)[nH]c(=O)n1-c1ccc(F)cc1 What is its recorded GI50?
### Response > 100 µM (inactive)

### Prompt Request the reported GI50 associated with Cc1cc(C)nc(NS(=O)(=O)c2ccc(NC(=O)c3cccc4c(Nc5ccc(S(=O)(=O)Nc6nc(C)cc(C)n6)cc5)c5ccc(Cl)cc5nc34)cc2)n1
### Response 28.2 µM (inactive)

Others:
### Prompt Can you look up the measured GI50 of CCO/C(CCn1[nH]c(=O)c(Cl)c(Cl)c1=O)=N\NC(=O)C(=O)NN for me?
### Response > 100 µM (inactive)
